Recorded values, source IntAct's records for PubMed 25803835.

B1: Serine/threonine-protein kinase TBK1 (Homo sapiens), Q9UHD2 (parent)
chain: MQSTSNHLWLLSDILGQGATANVFRGRHKKTGDLFAIKVFNNISFLRPVDVQMREFEVLKKLNHKNIVKLFAIEEETTTRHKVLIMEFCPCGSLYTVLEEPSNAYGLPESEFLIVLRDVVGGMNHLRENGIVHRDIKPGNIMRVIGEDGQSVYKLTDFGAARELEDDEQFVSLYGTEEYLHPDMYERAVLRKDHQKKYGATVDLWSIGVTFYHAATGSLPFRPFEGPRRNKEVMYKIITGKPSGAISGVQKAENGPIDWSGDMPVSCSLSRGLQVLLTPVLANILEADQEKCWGFDQFFAETSDILHRMVIHVFSLQQMTAHKIYIHSYNTATIFHELVYKQTKIISSNQELIYEGRRLVLEPGRLAQHFPKTTEENPIFVVSREPLNTIGLIYEKISLPKVHPRYDLDGDASMAKAITGVVCYACRIASTLLLYQELMRKGIRWLIELIKDDYNETVHKKTEVVITLDFCIRNIEKTVKVYEKLMKINLEAAELGEISDIHTKLLRLSSSQGTIETSLQDIDSRLSPGGSLADAWAHQEGTHPKDRNVEKLQVLLNCMTEIYYQFKKDKAERRLAYNEEQIHKFDKQKLYYHATKAMTHFTDECVKKYEAFLNKSEEWIRKMLHLRKQLLSLTNQCFDIEEEVSKYQEYTNELQETLPQKMFTASSGIKHTMTPIYPSSNTLVEMTLGMKKLKEEMEGVVKELAENNHILERFGSLTMDGGLRNVDCL

Variants of: B1
SETTINGS: with optn_human OPTN
METRIC: effect of a mutation on the interaction

R308Q : with no effect
K38A : with no effect
